- System: SK-OV-3 ovarian
- EXPERIMENTAL_PROTOCOL: NCI-60 one-dose screen, 48 h
- TEST_SETTINGS: 10 µM
Compounds without any hit were thinned out: in the full panel of roughly 83,000, 20% have a hit. Activity calls are given as the source filed them. Rule for the calls: active = growth percent below 10; inactive = the rest.
Choose one outcome from this list and give only that: 1.0 = active, 0.0 = inactive

As a guide, the following entries are already answered.
O=C(NCCCCCCCCCC[P+](c1ccccc1)(c1ccccc1)c1ccccc1)c1ccc(-n2nc(-c3ccccc3O)nc2-c2ccccc2O)cc1: 1.0
COc1ccc2c3nc4cc(C)c(C)cc4nc3n(CCN(C)C)c2c1: 1.0
COc1ccc(C(=O)Nc2sc3c(c2C#N)CCC(=O)C3)cc1C(F)(F)F: 1.0
O=C(N=Nc1c(O)[nH]c2ccc(Br)cc12)c1ccc2nc(-c3ccccc3)[nH]c2c1: 1.0

Q: Call for entry "Cc1ccc(NC(=O)NCn2c(=O)[nH]c3ccccc3c2=O)cc1" :
Ans: 0.0

Q: Call for entry "Cc1ccc(C(=O)NNC(=O)CSc2nc3ccccc3c(=O)[nH]2)cc1" :
Ans: 0.0

----------
- Tested on: HS 578T breast
- EXPERIMENTAL_PROTOCOL: NCI-60 one-dose screen, 48 h (100 = growth as untreated, 0 = no growth, -100 = all killed)
- TEST_SETTINGS: 10 µM
This is part of a sample that, as a whole, favours compounds with a hit. Of some 83,000 tested, about 20% had one in any assay.
METRIC: growth (%)
Numbers only, in %.

Solved cases below.
CC(=O)Nc1ccc(-n2cnc3cc(-c4ccc(O)cc4)ccc32)cc1F: 18.7
Cc1ccc([N+](=O)[O-])c(C(=O)Nc2ccc(-c3ccc4c(c3)NC(=O)/C4=C\c3ccc[nH]3)cc2)c1: 67.2
N#Cc1ccc(-c2nn(-c3ccc(C(=O)O)cc3)cc2CNc2cc(Cl)cc(Cl)c2)cc1: 50.2

Provide growth for all items below, preserving their order.
1. COc1cc(/C=C/C(=O)c2ccc(NC(=O)CSc3nnc(-c4c[nH]c5ccccc45)n3-c3ccccc3)cc2)cc(OC)c1OC
2. COc1cccc(COc2ccc(/C=C3\Oc4cc(O)ccc4C3=O)cc2)c1
3. COc1cccc2nc(Nc3cccc(NC(=O)c4ccc(CN5CCCN(C)CC5)c(C(F)(F)F)c4)c3)ccc12
4. Cc1ccn2c(C(=O)c3ccccc3)cc(-c3cc(-c4ccc(N(C)C)cc4)c(C#N)c(N)n3)c2c1
5. Cc1nc(Nc2nc(C)c3ccc(OCCN4CCOCC4)cc3n2)[nH]c(=O)c1C
6. N#Cc1ccc(-c2nn(-c3ccc(C(=O)O)cc3)cc2CNc2cc(Cl)cc(C(F)(F)F)c2)cc1
7. CNC(=O)c1cc(-c2ccc(NC(=O)Nc3ccc(C)cc3)cc2)nc2cccnc12
8. Cn1c(O)c(N=Nc2nc(-c3cc4ccccc4oc3=O)cs2)c2cc(Br)ccc21

Ans:
1: 93.2; 2: -7.04; 3: -61.7; 4: 33.2; 5: 11.9; 6: -0.292; 7: 106; 8: 17.5

Q: Which growth value belongs to "N#Cc1c(NC(=O)c2ccc(C(F)(F)F)cc2C(F)(F)F)sc2c1CCC(=O)C2" ?
Ans: -5.88

----------
- Test system: OVCAR-8 ovarian
- EXPERIMENTAL_PROTOCOL: NCI-60 one-dose screen, 48 h (100 = growth as untreated, 0 = no growth, -100 = all killed)
- TEST_SETTINGS: 10 µM
The panel holds about 83,000 compounds, 20% with a hit somewhere; the sample as a whole holds those more often.
Exercise: for every item that follows, state its recorded growth.
Answers are plain numbers, in %.

Solved cases below.
CC(=O)Nc1ccc(-c2cn(-c3cccc(C(=O)Nc4cccc(OC(F)(F)F)c4)c3)nn2)cn1: 57.1
O=C(c1ccc(O)cc1)C1[C@H](c2ccccc2Br)[C@@H](c2ccccc2)NC12C(=O)Nc1ccc(Cl)cc12 (some centres undefined): 4.97
N#Cc1ccc(NC(=O)CSc2ccc(-c3ccc(Br)cc3)nn2)cc1: 76.3

Q: Which growth value belongs to "COC1=C[C@@]23CCC(=O)N2CCc2cc4c(cc2[C@H]3[C@H]1OC(=O)C(C)(C)O)OCO4" ?
Ans: 109
